Taken from patent US9127015B2.

SYSTEM_TESTED: ACK1 (Homo sapiens, UniProt Q07912)
Sequence (Q07912 whole entry): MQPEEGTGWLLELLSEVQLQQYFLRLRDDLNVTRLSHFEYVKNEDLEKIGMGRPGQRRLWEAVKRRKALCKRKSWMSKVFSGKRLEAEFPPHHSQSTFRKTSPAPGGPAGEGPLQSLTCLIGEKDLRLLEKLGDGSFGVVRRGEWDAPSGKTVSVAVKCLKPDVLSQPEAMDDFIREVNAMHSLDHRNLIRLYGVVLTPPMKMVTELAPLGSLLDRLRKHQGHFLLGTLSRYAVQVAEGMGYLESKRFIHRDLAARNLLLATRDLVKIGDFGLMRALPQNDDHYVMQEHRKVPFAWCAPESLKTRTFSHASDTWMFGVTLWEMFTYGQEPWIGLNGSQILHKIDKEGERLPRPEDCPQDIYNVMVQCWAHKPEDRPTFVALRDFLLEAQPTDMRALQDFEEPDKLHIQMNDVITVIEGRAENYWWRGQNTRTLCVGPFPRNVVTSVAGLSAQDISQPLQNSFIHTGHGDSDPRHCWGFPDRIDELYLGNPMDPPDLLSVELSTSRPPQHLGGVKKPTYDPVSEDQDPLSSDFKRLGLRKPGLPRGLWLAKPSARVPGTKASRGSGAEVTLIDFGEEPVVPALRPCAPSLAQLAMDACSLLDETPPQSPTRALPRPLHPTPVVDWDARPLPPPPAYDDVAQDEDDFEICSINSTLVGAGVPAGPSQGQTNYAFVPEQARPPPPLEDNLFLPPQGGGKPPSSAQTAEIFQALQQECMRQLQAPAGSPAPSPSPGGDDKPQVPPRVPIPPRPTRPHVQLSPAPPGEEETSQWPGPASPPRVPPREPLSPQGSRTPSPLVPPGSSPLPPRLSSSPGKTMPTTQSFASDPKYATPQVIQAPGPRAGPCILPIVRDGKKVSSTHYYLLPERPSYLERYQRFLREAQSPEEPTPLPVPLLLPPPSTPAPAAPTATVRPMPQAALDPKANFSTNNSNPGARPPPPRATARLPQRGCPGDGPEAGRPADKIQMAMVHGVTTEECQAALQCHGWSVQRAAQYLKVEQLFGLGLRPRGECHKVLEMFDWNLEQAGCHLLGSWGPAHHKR
The following compounds are listed with their measured pIC50 values.
pIC50 field: float, defined as -log10 of concentration (mol/L).

Recorded results for 6 compounds are shown here.
compound="Cc1ccccc1C(=O)Nc1n[nH]c2c1CCCn1cc(C(=O)NCC3CC3)cc1-2 [Example A21-M2-B41]" system_tested="ACK1 (Homo sapiens, UniProt Q07912)" result=5.81
compound="O=C(Nc1n[nH]c2c1CCn1cc(C(=O)N3CCCC3)cc1-2)c1ccccc1F [Example A20-M1-B8]" system_tested="ACK1 (Homo sapiens, UniProt Q07912)" result=5.98
compound="Cc1ccccc1C(=O)Nc1n[nH]c2c1CCn1cc(C(=O)N3CCSCC3)cc1-2 [Example A21-M1-B38]" system_tested="ACK1 (Homo sapiens, UniProt Q07912)" result=5.69
compound="CCN(CC)C(=O)c1cc2n(c1)CCc1c(NC(=O)c3ccccc3Cl)n[nH]c1-2 [Example A5-M1-B17]" system_tested="ACK1 (Homo sapiens, UniProt Q07912)" result=5.67
compound="CC(C)CNC(=O)c1cc2n(c1)CCc1c(NC(=O)c3ccccc3Cl)n[nH]c1-2 [Example A5-M1-B39]" system_tested="ACK1 (Homo sapiens, UniProt Q07912)" result=5.71
compound="O=C(NCCN1CCCCC1)c1cc2n(c1)CCc1c(NC(=O)c3ccccc3Cl)n[nH]c1-2 [Example A5-M1-B31]" system_tested="ACK1 (Homo sapiens, UniProt Q07912)" result=5.50

Could you now look at the following compound, please?
Problem: Param readout = pIC50; param system = ACK1 (Homo sapiens, UniProt Q07912); param query = CC(C)(C)C(=O)Nc1n[nH]c2c1CCCn1cc(C(=O)N3CCC(N4CCCCC4)CC3)cc1-2 [Example A33-M2-B34] ; response: value
Solution: 5.84

* * *

A set of molecules tested on ACK1 (Homo sapiens, UniProt Q07912), with measured IC50:
Just the number please, in nM, no unit attached.

Problem: Please report the recorded IC50 for CC(C)N1CCN(C(=O)c2cc3n(c2)CCc2c(NC(=O)c4ccccc4Cl)n[nH]c2-3)CC1 [Example A5-M1-B40] .
Solution: 1730

Problem: Item: COCCNC(=O)c1cc2n(c1)CCCc1c(NC(=O)c3ccc(C)cc3C)n[nH]c1-2 [Example A35-M2-B33]
Solution: 3820

Problem: Here is the next molecule: O=C(NCCN1CCCCC1)c1cc2n(c1)CCCc1c(NC(=O)c3ccccc3Cl)n[nH]c1-2 [Example A5-M2-B31]
Solution: 3510

Problem: Now try CCN1CCN(C(=O)c2cc3n(c2)CCc2c(NC(=O)c4ccccc4Cl)n[nH]c2-3)CC1 [Example A5-M1-B37] .
Solution: 1000

Problem: Now consider CC(C)CNC(=O)c1cc2n(c1)CCCc1c(NC(=O)C(C)C)n[nH]c1-2 [Example A27-M2-B39] and answer again.
Solution: 3170

Problem: Let us now turn to C=CCNC(=O)c1cc2n(c1)CCCc1c(NC(=O)c3ccccc3Cl)n[nH]c1-2 [Example A5-M2-B36]
Solution: 740

Problem: Please do the same for Cc1ccc(C(=O)Nc2n[nH]c3c2CCn2cc(C(=O)NCC(C)C)cc2-3)c(C)c1 [Example A35-M1-B39] as well.
Solution: 2850
